molecular target: human serum albumin (HSA) (Homo sapiens); construct: full-length, fatty acid and globulin-free HSA purified from serum; assay: ITC ([…]°C, pH […]), two sets of independent sites; confirmed by 1H NMR chemical shift titration (Kd1 […])
Sequence (P02768 25-609): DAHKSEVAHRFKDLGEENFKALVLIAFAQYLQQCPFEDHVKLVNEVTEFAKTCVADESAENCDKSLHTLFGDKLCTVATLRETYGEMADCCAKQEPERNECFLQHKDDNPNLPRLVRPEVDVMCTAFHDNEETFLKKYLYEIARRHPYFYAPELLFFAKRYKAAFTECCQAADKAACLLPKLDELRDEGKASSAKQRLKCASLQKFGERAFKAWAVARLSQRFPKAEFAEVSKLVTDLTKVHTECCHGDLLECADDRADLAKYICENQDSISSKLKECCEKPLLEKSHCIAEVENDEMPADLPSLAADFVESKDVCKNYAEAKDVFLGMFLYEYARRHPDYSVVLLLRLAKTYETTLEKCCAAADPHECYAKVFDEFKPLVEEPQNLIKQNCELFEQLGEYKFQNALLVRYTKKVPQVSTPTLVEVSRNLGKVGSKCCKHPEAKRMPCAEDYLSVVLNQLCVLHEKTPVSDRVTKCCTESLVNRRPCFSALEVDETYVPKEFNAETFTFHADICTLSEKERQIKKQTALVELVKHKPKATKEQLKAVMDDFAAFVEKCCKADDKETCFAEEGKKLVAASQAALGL
measurement_type: pKd
# reply with the number alone; pKd is -log10 of concentration in mol/L

GET /values?readout=pKd&system=human serum albumin (HSA) (Homo sapiens)&item= O=C(O[C@@H]1Cc2c(O)cc(O)cc2O[C@@H]1c1cc(O)c(O)c(O)c1)c1cc(O)c(O)c(O)c1 [epigallocatechin gallate]
4.66
